biological target: cereblon homologue W36/59F mutant of M. gryphiswaldense (Magnetospirillum gryphiswaldense, UniProt A4TVL0, W36F/W59F); construct: His tag (vector pETHis_1a), TEV-cleavable (N, cleaved yes); test: FRET binding titration of MANT-uracil (excitation 295 nm, emission 440 nm)
Sequence (A4TVL0 entry or part of it W36F/W59F): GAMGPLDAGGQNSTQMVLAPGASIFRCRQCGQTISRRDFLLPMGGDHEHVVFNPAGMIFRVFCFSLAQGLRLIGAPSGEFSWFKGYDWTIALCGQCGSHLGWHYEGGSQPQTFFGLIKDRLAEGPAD
reported property: pKd
Scale explanation: pKd corresponds to minus log10 of a concentration expressed in moles per litre.

INPUT: Can you share its pKd? I mean this molecule: CNc1ccccc1C(=O)NCCn1ccc(=O)[nH]c1=O [MANT-uracil]
OUTPUT: 5.95

* * *

Kd listing for selected compounds.
target: CRBN homologue mutant W36/59F from M. gryphiswaldense (Magnetospirillum gryphiswaldense, UniProt A4TVL0, W36F/W59F); construct: His tag (vector pETHis_1a), TEV-cleavable (N, cleaved yes); assay: biochemical
Sequence (A4TVL0 entry or part of it W36F/W59F): as above
Number in µM, nothing else.

Examples with answers:
INPUT: Can you share its Kd? I mean this compound: O=c1ccn([C@@H]2O[C@H](CO)[C@@H](O)[C@H]2O)c(=O)[nH]1
OUTPUT: 14.5

INPUT: Can you share its Kd? I mean this compound: O=C1CCCN1
OUTPUT: 248

INPUT: Can you share its Kd? I mean this compound: O=c1cc[nH]c(=O)[nH]1
OUTPUT: 136

INPUT: Can you share its Kd? I mean this compound: O=c1ccn([C@H]2C[C@H](O)[C@@H](CO)O2)c(=O)[nH]1
OUTPUT: 7

Next:
INPUT: Can you share its Kd? I mean this compound: Cc1cn([C@H]2C[C@H](O)[C@@H](CO)O2)c(=O)[nH]c1=O
OUTPUT: 431
